Assay protocol: Cytotoxicity against human PBL assessed as reduction in cell viability incubated for 72 hrs by MTT assay
Assay type: cell-based
Protocol conditions: peripheral blood lymphocytes (PBL)
Readout type: GI50 at 72 h

Answered examples (2):
Smiles code | GI50 at 72 h
CCOC(=O)c1cc2c(n1Cc1cc(OC)cc(OC)c1)-c1oncc1CCC2 | > 100 µM
CCOC(=O)c1c(Cl)c2c(n1Cc1cc(OC)cc(OC)c1)-c1oncc1CCC2 | > 100 µM

Now for the compound whose GI50 at 72 h we want.
GI50 at 72 h reading for CCOC(=O)c1cc2c(n1Cc1cccc(OC)c1)-c1oncc1CCC2 : > 100 µM
